Tested on: HOP-62
Assay: NCI tumour cell line growth inhibition, 48 h
The source made the active and inactive calls. Cut-off read from the data, not from the text of the source: active = GI50 up to about 1.1 µM and inactive = higher.
Let's look at some compounds and their measured GI50.

compound="Cc1ccc(C)c(NC2=NC(=O)C(CC(=O)Nc3ccc(Cl)cc3Cl)S2)c1 (stereo unspecified)" target_of_assay=HOP-62 result="> 100 µM (inactive)"
compound=CC(=O)OC(C)(C)[C@H]1O[C@]23O[C@]1(C)C[C@@H](C)[C@@H]2[C@@]1(C)CC[C@@]24C[C@@]25CC[C@H](O[C@@H]2OC[C@@H](O)[C@H](O)[C@H]2O)C(C)(C)[C@@H]5CC[C@H]4[C@]1(C)[C@H]3O target_of_assay=HOP-62 result="11.9 µM (inactive)"
compound=C=CCn1c(=O)ccn(/C(=C/C(=O)OCC)C(=O)OCC)c1=O target_of_assay=HOP-62 result="20.9 µM (inactive)"
compound=Nc1ncn(C/C=C/c2ccccc2)c2ncnc1-2 target_of_assay=HOP-62 result="> 100 µM (inactive)"
compound=O=C1OCc2c1cc1cc3c(cc1c2-c1ccc2c(c1)OCO2)OCO3.O=C1OCc2cc3cc4c(cc3c(-c3ccc5c(c3)OCO5)c21)OCO4 target_of_assay=HOP-62 result="6.31 µM (inactive)"
compound="CC12CN(CC[N+](C)(C)C)CC1(C)C1CCC2O1 (stereo unspecified)" target_of_assay=HOP-62 result="> 100 µM (inactive)"
compound="CC(C)(Cl)C(Br)CCC(C)(Br)C(Br)CBr (stereo unspecified)" target_of_assay=HOP-62 result="16.1 µM (inactive)"
compound=CCOC(=O)c1nc2ccc(Cl)cc2c2c1Cc1ccccc1-2 target_of_assay=HOP-62 result="> 100 µM (inactive)"
compound=CC(C)(C)c1cc(Cc2ccc(S(C)(=O)=O)cc2)c(O)c(C(C)(C)C)c1 target_of_assay=HOP-62 result="16.2 µM (inactive)"
compound=Cc1nc2c(O)nc3ccccc3c2o1 target_of_assay=HOP-62 result="> 100 µM (inactive)"

So what's the measured GI50 for this one? COc1cc(C2c3cc4c(cc3[C@@H](Nc3ccc(F)cc3)C3COC[C@H]23)OCO4)cc(OC)c1O (stereo partly specified) 2.45 µM (inactive)

Suppose we examine the compound CN1CCC(O)C(CNC23CC4CC(CC(C4)C2)C3)C1 (stereo unspecified) ; what GI50 value has been reported? > 100 µM (inactive)

Record request: GI50 value, item CCOc1ccc(C(c2c(O)c3ccccc3oc2=O)c2c(O)c3ccccc3oc2=O)cc1 61.5 µM (inactive)

Fill in the blank: the reported GI50 of CN(CCN(C)C(=S)NN)C(=S)NN is ____. > 100 µM (inactive)

Quick one: GI50 of S=C1C=C(c2ccccc2)Sc2ccccc2N1 ? 41.4 µM (inactive)

Data request, read-out GI50, for COc1cc2c3cc1Oc1c(O)c(OC)cc4c1C(Cc1ccc(O)c(c1)Oc1ccc(cc1)CC3N(C)CC2)N(C)CC4 (stereo unspecified) 18.7 µM (inactive)

Using the record for O=C1N[C@H]2c3c(Cl)sc(Cl)c3/C(=N/O)[C@H]2O1 , report its GI50. > 100 µM (inactive)

----------
System: HL-60
Assay: NCI tumour cell line growth inhibition, 48 h
Activity calls are given as the source filed them. Rule as the data show it: active = GI50 up to about 1.1 µM and inactive = higher.
Give one outcome, nothing more. List: YES (active), NO (inactive)

compound="CCOC(=O)C1(N)CCc2[nH][nH]c(=O)c2C1 (stereo not drawn)" target_of_assay=HL-60 label_class=NO
compound=N#Cc1c2c(c(Nc3ccc(F)cc3)n3c1nc1ccccc13)CCCC2 target_of_assay=HL-60 label_class=NO
compound="COC(=O)C1=C(C)NC(=S)NC1c1ccc(N(CCCl)CCCl)cc1Cl (stereo not drawn)" target_of_assay=HL-60 label_class=NO
compound="COC(=O)C1CCC(=O)N1C(c1ccc(OC)cc1)c1ccc2c(c1)OCO2 (stereo not drawn)" target_of_assay=HL-60 label_class=NO
compound="COC(=O)C(CCCCNC(=O)CNC(=O)OCc1ccccc1)NC(=O)C(CCCCNC(=O)CNC(=O)OCc1ccccc1)NC(=O)OCc1ccccc1 (stereo not drawn)" target_of_assay=HL-60 label_class=NO
compound=CC(=O)O[C@H]1C(=O)[C@@]2(C)[C@H]([C@H](OC(=O)c3ccccc3)[C@]3(O)C[C@H](OC(=O)[C@H](O)[C@@H](NC(=O)c4cccc(N=[N+]=[N-])c4)c4ccccc4)C(C)=C1C3(C)C)[C@]1(OC(C)=O)CO[C@@H]1C[C@@H]2O target_of_assay=HL-60 label_class=YES
compound=CC(=O)OC(C)(C)[C@H]1O[C@]23O[C@]1(C)C[C@@H](C)[C@@H]2[C@@]1(C)CC[C@@]24C[C@@]25CC[C@H](O[C@@H]2OC[C@@H](O)[C@H](O)[C@H]2O)C(C)(C)[C@@H]5CC[C@H]4[C@]1(C)[C@H]3O target_of_assay=HL-60 label_class=NO

Now take the following compound into account.
Call for entry CNCC(SC)c1ccc(O)c(O)c1 (stereo not drawn) : NO
